assay: Pharmacokinetic parameters in rats; assay type: in vivo; conditions: male, rat, plasma; SD rats, oral (20 mg/kg)
MEASUREMENT_NAME: Cmax (ng/mL)
Enter your answer as a number in ng/mL; do not include the unit.

Input: Fill in Cmax for record `CC(C)c1ccc(C(=O)Nc2cc(CN3CCN(C)CC3)cc(C(F)(F)F)c2)cc1C#Cc1cnc2cnccn12`
Output: 48.7
